- Assay System: T1, GDF15 mutant Q247R (wrist region), albumin fusion (human, UniProt Q99988 195-308)
- T1 construct: not shown: albumin fusion partner
- T1 chain: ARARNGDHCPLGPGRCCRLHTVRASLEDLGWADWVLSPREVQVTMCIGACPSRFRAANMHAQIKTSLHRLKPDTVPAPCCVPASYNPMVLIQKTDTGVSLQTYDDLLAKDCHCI
- Test: direct ELISA on coated albumin-fusion GDF15 variant
- Description: Antibody epitope was determined by a direct ELISA method with GDF15 mutants. Albumin fusion GDF15 mutants were coated in wells of a 96-well EIA plate. After blocking, serially diluted anti-hGDF15 human antibodies were added to the GDF15-coated wells, followed by incubation at an ambient temperature for a few hours. Antibody binding was detected using an anti-human IgG antibody conjugated with horseradish peroxidase (HRP) and HRP substrate.
Experimental Readout: binding result

Binder: ABGDF15-G (antibody, human IgG1, kappa, V domains shown, captured through anti-human Fc in the Biacore assay) VH: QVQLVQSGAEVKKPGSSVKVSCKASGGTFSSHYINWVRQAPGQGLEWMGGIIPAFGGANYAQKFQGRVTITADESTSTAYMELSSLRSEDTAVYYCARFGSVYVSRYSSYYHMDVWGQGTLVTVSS VL: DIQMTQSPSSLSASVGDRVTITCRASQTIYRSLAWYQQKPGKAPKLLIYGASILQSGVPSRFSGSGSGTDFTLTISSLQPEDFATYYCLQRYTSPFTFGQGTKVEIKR
Value Reported: binds

Origin of measurements: patent US20190135908A1
